test.details: Stability in Mouse Plasma
Format: in vitro ADME
particulars: read-out: Stability Mouse Plasma t1/2
measured.attribute: half-life

Here is how some molecules turned out for half-life.
CSCCC(NC=O)C(=O)NC(CC(C)C)C(=O)Oc1c(Br)cc(CO)cc1-c1ccco1 (stereo not shown) | > 20 min
CSCCC(NC=O)C(=O)NC(CC(C)C)C(=O)Oc1c(C)cc(CO)cc1C (stereo not shown) | > 20 min
CSCCC(NC=O)C(=O)NC(CC(C)C)C(=O)Oc1c(-c2ccccc2)cc(CO)cc1-c1ccccc1 (stereo not shown) | > 20 min

Shift focus to the following entry.
Query: half-life lookup needed for COc1cc(CO)cc(Br)c1OC(=O)C(CC(C)C)NC(=O)C(CCSC)NC=O (stereo not shown) , thanks.
Reply: 8.9 min
